Numbers sourced from the supplement of paper PMC13380429.

Provide the reported inhibition of SARS-CoV-2 cytopathic effect of each item.
Test system: Vero E6 infected with SARS-CoV-2
Experiment: inhibition of SARS-CoV-2 cytopathic effect; higher = more antiviral protection, active = above 15
Conditions: 8.33 nM; 48 h
Numbers only, in %.

Some solved cases for reference:
{"compound": "Cc1cccc(C)c1NC(=O)/N=C1\\CCCN1C [xilobam]", "uom": "%", "observed-value": -0.97}
{"compound": "Cc1ccc2nc(NCCN)c3ncc(C)n3c2c1", "uom": "%", "observed-value": -0.71}
{"compound": "Cn1c(=O)c2c(ncn2CC(O)CO)n(C)c1=O (stereo not given) [dyphylline]", "uom": "%", "observed-value": -3.64}
{"compound": "Cc1nc(N)sc1-c1ccnc(Nc2ccc(N3CCOCC3)cc2)n1", "uom": "%", "observed-value": 0.72}

Now turn to the next compound.
Problem: Give reported inhibition of SARS-CoV-2 cytopathic effect value for CC[C@H](CC[C@@H](C)[C@H]1CC[C@H]2[C@@H]3CC=C4C[C@@H](O)CC[C@]4(C)[C@H]3CC[C@]12C)C(C)C [beta-Sitosterol]
Result: 2.31

---

System: Vero E6 infected with SARS-CoV-2
Assay: inhibition of SARS-CoV-2 cytopathic effect; higher = more antiviral protection, active = above 15
Conditions: 1 nM; 48 h
Can you tell me inhibition of SARS-CoV-2 cytopathic effect for the items I'm about to list?
One number for each entry, in %.

{"molecule": "Cn1c(=O)cnn(CCCCN2CCN(c3ncccn3)CC2)c1=O", "observed-value": 0.44}
{"molecule": "CCc1[nH]c(=O)[nH]c1C(=O)c1ccncc1", "observed-value": -0.93}
{"molecule": "CC1(C)C(=O)NC2=C1C(=O)C(=O)c1ccccc12", "observed-value": 0.25}
{"molecule": "Cc1cc(C)c(N)c(C#Cc2cccc(F)c2)n1", "observed-value": 1.69}

Provide inhibition of SARS-CoV-2 cytopathic effect for all items below, preserving their order.
1. CN(C)CCCO[C@@H]1[C@H]2OC(C)(C)O[C@H]2O[C@@H]1[C@H](O)CO
2. CNC1CC(c2ccc(Cl)c(Cl)c2)c2ccccc21 (stereo not drawn)
3. CC(=O)OCC(=O)[C@@]1(OC(C)=O)[C@@H](C)C[C@H]2[C@@H]3C[C@H](F)C4=CC(=O)C=C[C@]4(C)[C@@]3(F)[C@@H](O)C[C@@]21C [diflorasone-diacetate]

Result:
[-4.79, -0.39, 3.78]

Problem: Indicate the recorded inhibition of SARS-CoV-2 cytopathic effect value for this molecule: "CC(=O)OCC(=O)[C@@]12N=C(C)O[C@@H]1C[C@H]1[C@@H]3CCC4=CC(=O)C=C[C@]4(C)[C@H]3[C@@H](O)C[C@@]12C"
Result: 2.25

---

Answer each item with its documented inhibition of SARS-CoV-2 cytopathic effect.
System: Vero E6 infected with SARS-CoV-2
Assay: inhibition of SARS-CoV-2 cytopathic effect; higher = more antiviral protection, active = above 15
Details: 833.33 nM; 48 h
Numbers only, in %.

{"compound": "C#CCN(C)[C@H](C)Cc1ccccc1 [selegiline]", "uom": "%", "observed-value": 0.09}
{"compound": "C=CCNc1ncnc2ccc(Br)cc12", "uom": "%", "observed-value": 0.12}
{"compound": "CCOC(=O)c1ncn2c1CN(C)C(=O)c1cc(F)ccc1-2 [flumazenil]", "uom": "%", "observed-value": -4.65}
{"compound": "N#Cc1ccc(C2CCCc3cncn32)cc1 (stereo unspecified) [fadrozole]", "uom": "%", "observed-value": -4.4}
{"compound": "CC[C@H](CC[C@@H](C)[C@H]1CC[C@H]2[C@@H]3CC=C4C[C@@H](O)CC[C@]4(C)[C@H]3CC[C@]12C)C(C)C [beta-Sitosterol]", "uom": "%", "observed-value": -2.15}

Problem: Provide inhibition of SARS-CoV-2 cytopathic effect, tested on Vero E6 infected with SARS-CoV-2, for Nc1n[n+]([O-])c2ccccc2[n+]1[O-] [tirapazamine] .
Result: 0.37

---

System: Vero E6 infected with SARS-CoV-2
Assay: SARS-CoV-2 infection rate relative to infected DMSO; higher = more infection, active = 60 or less
Settings: 24 h
measurement-name: SARS-CoV-2 infection rate

{"molecule": "CC(C)(C)NC(=O)[C@@H]1C[C@@H]2CCCC[C@@H]2CN1C[C@@H](O)[C@H](Cc1ccccc1)NC(=O)[C@H](CC(N)=O)NC(=O)c1ccc2ccccc2n1 [saquinavir] (10 µM)", "SARS-CoV-2 infection rate": "106% (inactive)"}
{"molecule": "Cc1c(CN(C)C(=O)/C=C/c2cnc3c(c2)CCC(=O)N3)oc2ccccc12 (10 µM)", "SARS-CoV-2 infection rate": "94% (inactive)"}
{"molecule": "O=C(O)c1ccc(S(=O)(=O)N(Cc2ccc(OC(F)(F)F)cc2)c2ncc(C(F)(F)F)cc2Cl)cc1 (10 µM)", "SARS-CoV-2 infection rate": "102% (inactive)"}

Attention now turns to another entry.
Problem: Item NCCc1cc(O)c(O)cc1O [oxidopamine] (10 µM) : provide SARS-CoV-2 infection rate
Result: 102% (inactive)

---

Tested on: Vero E6 infected with SARS-CoV-2
Test: inhibition of SARS-CoV-2 cytopathic effect; higher = more antiviral protection, active = above 15
Details: 1 nM; 48 h
Can you tell me inhibition of SARS-CoV-2 cytopathic effect for the items I'm about to list?
Answers are plain numbers, in %.

{"compound": "C[C@H](N)C(=O)N[C@@H](CCC(N)=O)C(=O)O [dipeptamin]", "tested-target": "Vero E6 infected with SARS-CoV-2", "observed-value": -0.51}
{"compound": "Cc1sc2c(c1C)C(c1ccc(Cl)cc1)=N[C@@H](CC(=O)Nc1ccc(O)cc1)c1nnc(C)n1-2", "tested-target": "Vero E6 infected with SARS-CoV-2", "observed-value": 1.01}

Would you mind listing inhibition of SARS-CoV-2 cytopathic effect for each of the following compounds?
1. Cc1ccc(-c2c(-c3nn(C)c4ncnc(N5CC[C@H](N6CCCCC6)C5)c34)cnn2C)cc1
2. C=C[C@@]1(C)CC(=O)[C@]2(O)[C@@]3(C)[C@@H](O)CCC(C)(C)[C@@H]3[C@H](OC(=O)CCN(C)C)[C@H](OC(C)=O)[C@@]2(C)O1 [colforsin-daproate]
3. C[N+]1(C)CCCC(OC(=O)C(O)(c2ccccc2)c2ccccc2)C1 (stereo not drawn) [mepenzolate]
4. C=C(CC)C(=O)c1ccc(OCC(=O)O)c(Cl)c1Cl [etacrynic-acid]
5. CCCCCCCCCCCCCCCCO [1-hexadecanol]
6. O=C([O-])c1ccccn1.O=C([O-])c1ccccn1.O=C([O-])c1ccccn1.[Cr+3] [chromium-picolinate]

Result:
1: -0.9; 2: 0.4; 3: -0.21; 4: 1.1; 5: -1.82; 6: 0.6

---

Test system: Vero E6 infected with SARS-CoV-2
Assay: inhibition of SARS-CoV-2 cytopathic effect; higher = more antiviral protection, active = above 15
Details: 8.33 nM; 48 h
measurement-name: inhibition of SARS-CoV-2 cytopathic effect

{"compound": "O=C(O)Cc1ccc(CCNS(=O)(=O)c2ccc(Cl)cc2)cc1 [daltroban]", "observed-value": "3.04% (inactive)"}
{"compound": "CCOC(=O)c1ccc(C#Cc2ccc3c(c2)C(C)(C)CCS3)nc1 [tazarotene]", "observed-value": "0.89% (inactive)"}
{"compound": "O=c1[nH]c([C@@H]2CCCN2)nc2c1oc1ccc(Cl)cc12", "observed-value": "0.12% (inactive)"}
{"compound": "CS(=O)(=O)c1ccc([C@@H](CC2CCCC2)C(=O)Nc2nccs2)cc1", "observed-value": "-1.12% (inactive)"}

Provide the reported inhibition of SARS-CoV-2 cytopathic effect of each entry below, same order.
1. COc1ccccc1S(=O)(=O)Nc1ccc2c(c1)CN(C)C(=O)N2
2. CN1C(=O)COc2c(C(=O)NC3CN4CCC3CC4)cc(Cl)cc21 (configuration not stated) [azasetron]
3. CNC(=O)Oc1cccc2ccccc12 [carbaril]
4. N[C@H](CO)C(=O)O [D-serine]
5. CO[C@H]1O[C@@H]2O[C@@]3(C)CC[C@H]4[C@H](C)CC[C@@H]([C@H]1C)[C@@]24OO3 [artemether]

Result:
["3.07% (inactive)", "1.89% (inactive)", "-0.59% (inactive)", "1.46% (inactive)", "4.82% (inactive)"]

For every record below, what is its inhibition of SARS-CoV-2 cytopathic effect?
1. CC[C@H]1OC(=O)[C@H](C)[C@@H](O[C@H]2C[C@@](C)(OC)[C@@H](O)[C@H](C)O2)[C@H](C)[C@@H](O[C@@H]2O[C@H](C)C[C@H](N(C)C)[C@H]2O)[C@](C)(OC)C[C@@H](C)C(=O)[C@H](C)[C@@H](O)[C@]1(C)O [clarithromycin]
2. CC1(C)C(=O)N(c2ccc(C#N)c(C(F)(F)F)c2)C(=O)N1CCCCO
3. Cc1ccc(-c2c(-c3nn(C)c4ncnc(N5CC[C@H](N6CCCCC6)C5)c34)cnn2C)cc1
4. CCOC(=O)C1=C(C)NC(c2ccccc2)=C(C(=O)OCc2ccc([N+](=O)[O-])cc2)[C@@H]1C#Cc1ccccc1
5. O=S(=O)(O)c1ccc(-c2c3nc(c(-c4ccc(S(=O)(=O)O)cc4)c4ccc([nH]4)c(-c4ccc(S(=O)(=O)O)cc4)c4nc(c(-c5ccc(S(=O)(=O)O)cc5)c5ccc2[nH]5)C=C4)C=C3)cc1
6. Cc1ccc(C(=O)N(CCCN)[C@@H](c2oc3cc(Cl)ccc3c(=O)c2Cc2ccccc2)C(C)C)cc1
7. COc1cc(Nc2c(C#N)cnc3cc(OCCCN4CCN(C)CC4)c(OC)cc23)c(Cl)cc1Cl [bosutinib]
8. N[C@@H](CC(=O)N1CCn2c(nnc2C(F)(F)F)C1)Cc1cc(F)c(F)cc1F [sitagliptin]

Result:
-0.55% (inactive)
0.32% (inactive)
-0.84% (inactive)
-1.34% (inactive)
-2.68% (inactive)
-1.04% (inactive)
-1.8% (inactive)
1.03% (inactive)

Go through the items and report each one's inhibition of SARS-CoV-2 cytopathic effect.
1. O=C(O)c1ccc(S(=O)(=O)N(Cl)Cl)cc1 [halazone]
2. OC(c1ccccc1)(c1ccccc1)C12CC[N+](CCOCc3ccccc3)(CC1)CC2 [umeclidinium]
3. O=C(O)C1=CCCN(CCON=C(c2ccccc2)c2ccccc2)C1
4. CCCCN(CCCC)CCCOC(=O)c1ccc(N)cc1 [butacaine]
5. CC(=O)OCC(=O)[C@@]12N=C(C)O[C@@H]1C[C@H]1[C@@H]3CCC4=CC(=O)C=C[C@]4(C)[C@H]3[C@@H](O)C[C@@]12C [Deflazacort (Calcort)]
6. O=C(NS(=O)(=O)c1ccc(Br)s1)c1ccc(Cl)cc1Cl [tasisulam]
7. C[N+]1([O-])[C@@H]2CC[C@H]1C[C@@H](OC(=O)C(CO)c1ccccc1)C2 (some centres not stated) [atropine-oxide]
8. COc1ccc(/C=C/C(=O)O)cc1 [trans-4-methoxycinnamic-acid]

Result:
1. 2.43% (inactive)
2. 1.77% (inactive)
3. 0.36% (inactive)
4. 5.07% (inactive)
5. -0.15% (inactive)
6. 5.25% (inactive)
7. -2.05% (inactive)
8. -0.31% (inactive)
